# reported activity at 40 µM; entries follow
TARGET: Thrombin (Homo sapiens)
METHOD NOTES: Related protease inhibition: Thrombin, fluorogenic substrate
Format: biochemical
EXPERIMENTAL CONDITIONS: fluorogenic substrate at Km, 25° C.; H1-H3 = % activity at 40 μM; read-out: IC50 (human thrombin) nM

[
  {
    "COMPOUND SMILES": "CCNC(=O)c1nn(-c2ccc(O)c(Cl)c2)c2c1CCN(c1ccc3c(c1)C(=O)N(C)CC3)C2=O",
    "TARGET": "Thrombin (Homo sapiens)",
    "activity at 40 µM": "> 80%"
  }
]

Input line: Item CN1CCc2ccc(N3CCc4cnn(-c5cc(Cl)cc(CN)c5)c4C3=O)cc2C1=O has what recorded activity at 40 µM?
Output line: > 80%

Input line: Give the measured activity at 40 µM of CCNC(=O)c1nn(-c2cc(C)cc(Cl)c2)c2c1CCN(c1ccc3c(c1)C(=O)N(C)CC3)C2=O .
Output line: > 80%

###

TARGET: FXa (Homo sapiens)
METHOD NOTES: Related protease inhibition: FXa, fluorogenic substrate
Type: biochemical
EXPERIMENTAL CONDITIONS: fluorogenic substrate at Km, 25° C.; H1-H3 = % activity at 40 μM; read-out: IC50 (human FXa) nM
REPORTED METRIC: activity at 40 µM

[
  {
    "COMPOUND": "CN1CCc2ccc(N3CCc4c(C(=O)NCC5(N)CC5)nn(-c5cccc(Cl)c5)c4C3=O)cc2C1=O",
    "TARGET": "FXa (Homo sapiens)",
    "activity at 40 µM": "> 80%"
  },
  {
    "COMPOUND": "CCNC(=O)c1nn(-c2cccc(Cl)c2)c2c1CCN(c1ccc3c(c1)N(C(C)=O)CC31CC1)C2=O",
    "TARGET": "FXa (Homo sapiens)",
    "activity at 40 µM": "20 to 80%"
  },
  {
    "COMPOUND": "CCNC(=O)c1nn(-c2cccc(Cl)c2)c2c1CCN(c1cccc(N3CC4CC4C3)c1)C2=O (centres unmarked)",
    "TARGET": "FXa (Homo sapiens)",
    "activity at 40 µM": "< 20%"
  },
  {
    "COMPOUND": "CN1CCc2ccc(N3CCc4c(C(=O)N[C@H]5COC[C@@H]5O)nn(-c5cccc(Cl)c5)c4C3=O)cc2C1=O",
    "TARGET": "FXa (Homo sapiens)",
    "activity at 40 µM": "> 80%"
  }
]

Input line: What does the record list as activity at 40 µM for CN1CCc2ccc(N3CCc4c(C(=O)N[C@@H]5COC[C@H]5O)nn(-c5cccc(Cl)c5)c4C3=O)cc2C1=O ?
Output line: > 80%

###

TARGET: FXa (Homo sapiens)
Listed molecules paired with reported IC50

Solved entries:
[
  {
    "COMPOUND SMILES": "Cc1cc(CNC(=O)CN2CCOc3ccc(N4CCc5c(C(=O)NCc6cc(C)n(C)n6)nn(-c6cccc(Cl)c6)c5C4=O)cc3C2=O)nn1C",
    "OBSERVED": "3 to 10 µM"
  },
  {
    "COMPOUND SMILES": "CCNC(=O)c1nn(-c2cccc(Cl)c2)c2c1CCN(c1cccc(N3CC4(CC4)N(C)C3=O)c1)C2=O",
    "OBSERVED": "> 40 µM"
  },
  {
    "COMPOUND SMILES": "CCNC(=O)c1nn(-c2cccc(Cl)c2)c2c1CCN(c1cccc(N3CC4(CC4)CC3=O)c1)C2=O",
    "OBSERVED": "> 40 µM"
  },
  {
    "COMPOUND SMILES": "O=C(NCC1CC1)c1nn(-c2cccc(Cl)c2)c2c1CCN(c1ccc3c(c1)CN(CC1CC1)CC3)C2=O",
    "OBSERVED": "> 40 µM"
  },
  {
    "COMPOUND SMILES": "CCOC(=O)c1nn(-c2cccc(Cl)c2)c2c1CCN(c1cccc(-n3ccccc3=O)c1)C2=O",
    "OBSERVED": "3 to 10 µM"
  }
]

Input line: Record COCCN1CCc2ccc(N3CCc4c(C(=O)NCC5CC5)nn(-c5cccc(Cl)c5)c4C3=O)cc2C1=O : what is its IC50 with FXa (Homo sapiens)?
Output line: > 40 µM

Input line: // fetch FXa (Homo sapiens) IC50 for CCN1CCc2ccc(N3CCc4c(C(=O)N[C@H](CO)c5ccccc5)nn(-c5cccc(Cl)c5)c4C3=O)cc2C1
Output line: 3 to 10 µM

###

pIC50 values, listed per item
TARGET: FXa (Homo sapiens, UniProt P00742)
Sequence (P00742 235-488 limits assumed): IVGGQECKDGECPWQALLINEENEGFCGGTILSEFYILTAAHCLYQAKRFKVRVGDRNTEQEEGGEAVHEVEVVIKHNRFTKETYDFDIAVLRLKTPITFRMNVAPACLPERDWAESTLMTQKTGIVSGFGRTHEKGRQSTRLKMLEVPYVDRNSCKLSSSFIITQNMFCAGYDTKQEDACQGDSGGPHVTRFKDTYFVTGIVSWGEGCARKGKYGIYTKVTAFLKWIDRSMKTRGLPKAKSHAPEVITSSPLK
Sequence (P00742 41-179 partner limits assumed): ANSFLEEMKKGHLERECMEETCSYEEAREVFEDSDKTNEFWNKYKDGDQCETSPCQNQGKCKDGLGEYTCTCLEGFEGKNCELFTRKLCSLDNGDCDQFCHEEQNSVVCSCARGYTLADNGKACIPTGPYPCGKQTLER
pIC50: −log10 of the molar value.

Solved entries:
[
  {
    "MOLECULE": "Cc1ccncc1CNC(=O)c1nn(-c2cccc(Cl)c2)c2c1CCN(c1ccc3c(c1)CN(CCO)CC3)C2=O",
    "REPORTED METRIC": "pIC50",
    "OBSERVED": "4.40 to 5.00"
  },
  {
    "MOLECULE": "CCOC(=O)c1nn(-c2cccc(Cl)c2)c2c1CCN(c1cccc(CN3CCCCC3)c1)C2=O",
    "REPORTED METRIC": "pIC50",
    "OBSERVED": "4.40 to 5.00"
  },
  {
    "MOLECULE": "CCN1CCc2ccc(N3CCc4c(C(=O)NCc5cc(C6CC6)n[nH]5)nn(-c5cccc(Cl)c5)c4C3=O)cc2C1",
    "REPORTED METRIC": "pIC50",
    "OBSERVED": "5.00 to 5.52"
  }
]

Input line: Find pIC50 (FXa (Homo sapiens, UniProt P00742)) for the entry CN1CCc2ccc(N3CCc4c(C(=O)NC5CCC5)nn(-c5cccc(Cl)c5)c4C3=O)cc2C1=O
Output line: < 4.40

Input line: Field: pIC50 (FXa (Homo sapiens, UniProt P00742)). Entry: Cc1ccncc1C(C)NC(=O)c1nn(-c2cccc(Cl)c2)c2c1CCN(c1ccc3c(c1)C(=O)N(CCO)CC3)C2=O (centres unmarked)
Output line: < 4.40

Input line: // lookup pIC50 | system=FXa (Homo sapiens, UniProt P00742) | key= Cc1cncc(CNC(=O)c2nn(-c3cccc(Cl)c3)c3c2CCN(c2ccc4c(c2)C(=O)N(C)CC4)C3=O)c1
Output line: 4.40 to 5.00

Input line: Lab note: need pIC50 for CN1CCc2ccc(N3CCc4c(C(=O)N[C@@H](CO)C5CC5)nn(-c5cccc(Cl)c5)c4C3=O)cc2C1=O on FXa (Homo sapiens, UniProt P00742), anyone have it?
Output line: < 4.40

Input line: # get_value(readout= pIC50, system= FXa (Homo sapiens, UniProt P00742)) for Cc1nc2c(C(=O)NCC3CC3)nn(-c3cccc(Cl)c3)c2c(=O)n1-c1ccc2c(c1)CN(CCO)CC2
Output line: < 4.40

Input line: Record Cc1cc(CNC(=O)c2nn(-c3cccc(Cl)c3)c3c2CCN(c2ccc4c(c2)C(=O)N(C)CC4)C3=O)nn1C : what is its pIC50 with FXa (Homo sapiens, UniProt P00742)?
Output line: 4.40 to 5.00

###

The molecules below have reported IC50 for Human Factor XIIa (hFXIIa) (Homo sapiens).

Input line: Can you share its IC50? I mean this molecule: Cc1cc(CNC(=O)c2nn(-c3cccc(Cl)c3)c3c(=O)n(-c4ccc5c(c4)C(=O)N(C)CC5)c(C)nc23)nn1C
Output line: 100 to 300 nM

Input line: Name the recorded IC50 for CN1CCc2ccc(N3CCc4c(C(=O)NCC5CC5)nn(-c5cccc(C#N)c5)c4C3=O)cc2C1=O .
Output line: 300 to 1000 nM

Input line: Value lookup for IC50; key = Cc1cc(CNC(=O)c2nn(-c3cc(Cl)cc(CN)c3)c3c2CCN(c2ccc4c(c2)C(=O)N(C)CC4)C3=O)nn1C
Output line: 1 to 10 nM

Input line: Would you mind telling me what IC50 value was observed for Cc1nc2c(CNC(=O)C3CC3)nn(-c3cccc(Cl)c3)c2c(=O)n1-c1ccc2c(c1)CN(CCO)CC2 ?
Output line: 300 to 1000 nM

Input line: Give its IC50 value. Item: O=C(NCC1CC1)c1nn(-c2cccc(Cl)c2)c2c1CCN(c1cc3c(cc1F)CCN(CCO)C3)C2=O
Output line: 100 to 300 nM

Input line: Could you share which IC50 value was measured for CCNC(=O)c1nn(-c2cccc(Cl)c2)c2c1CCN(c1cccc(N3CC4CC4C3=O)c1)C2=O (centres unmarked) ?
Output line: 1000 to 3000 nM

Input line: If you can, please state the reported IC50 value of CN1CCc2ccc(N3CCc4c(C(=O)NCc5ccccc5)nn(-c5cccc(Cl)c5)c4C3=O)cc2C1 .
Output line: 10 to 100 nM

Input line: Consider the molecule CN1CCc2ccc(N3CCc4c(C(=O)N5CCOCC5)nn(-c5cccc(Cl)c5)c4C3=O)cc2C1=O and give its measured IC50.
Output line: 3000 to 10000 nM
